Just for reference, patent US9394295B2 is where these values come from.

Experiment: In vivo pharmacokinetic and oral bioavailability
Details: mouse, plasma, po; p.o. 10 mg/kg vs i.v. 2.5 mg/kg, male Swiss mice
Overview of recorded bioavailability for various compounds
Please don't drop the unit; write it after the number.

Examples from the recorded data:
INSERT INTO assay_data (compound, readout_kind, value_observed) VALUES
  ('Cc1ccc(F)cc1C1=CCN(C(=O)/C=C/c2cnc3c(c2)CCC(=O)N3)CCC1 [Co. No. 14]', 'bioavailability', '90%'),
  ('COc1ccc(F)cc1C1=CCCN(C(=O)/C=C/c2cnc3c(c2)CCC(=O)N3)CC1 [Co. No. 27]', 'bioavailability', '89%');

Task: Give its bioavailability value. Item: COc1ccccc1C1=CCCN(C(=O)/C=C/c2cnc3c(c2)CCC(=O)N3)CC1 [Co. No. 10]
Result: 78%
